Taken from patent US8691184B2.

# tested-on: UniProtKB Q07817
# Sequence (Q07817 whole entry): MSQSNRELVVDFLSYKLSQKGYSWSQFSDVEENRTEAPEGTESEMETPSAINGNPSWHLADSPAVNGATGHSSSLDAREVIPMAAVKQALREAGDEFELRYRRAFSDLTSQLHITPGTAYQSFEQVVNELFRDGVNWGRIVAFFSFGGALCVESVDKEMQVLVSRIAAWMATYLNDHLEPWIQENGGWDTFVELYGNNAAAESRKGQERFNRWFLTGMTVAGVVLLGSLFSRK
# method-summary: FP-based binding assay, Bcl-xL
Can you tell me pIC50 for the items I'm about to list?
One number for each entry, as −log10 of the molar value.

Below: 4 molecules and their reported pIC50.
query_smiles=Cc1c(C(=O)O)c(-c2cccc(N3CCN(c4ccc(NS(=O)(=O)c5ccc(N[C@H](CCN6CCOCC6)CSc6ccccc6)c(S(=O)(=O)C(F)(F)F)c5)cc4)CC3)c2)c(-c2ccc(Cl)cc2)n1C property_measured=pIC50 recorded_value=8.22
query_smiles=CNC(=O)c1c(-c2cccc(N3CCN(c4ccc(NS(=O)(=O)c5ccc(N[C@H](CCN6CCOCC6)CSc6ccccc6)c([N+](=O)[O-])c5)cc4)CC3)c2)c(-c2ccc(Cl)cc2)n(C)c1C property_measured=pIC50 recorded_value=8.30
query_smiles=Cc1c(C(=O)O)c(-c2cccc(N3CCN(c4ccc(NS(=O)(=O)c5ccc(N[C@H](CCN6CCOCC6)CSc6ccccc6)c([N+](=O)[O-])c5)cc4)CC3)c2)c(-c2ccc(Cl)cc2)n1C property_measured=pIC50 recorded_value=8.30
query_smiles=Cc1cc(-c2cccc(N3CCN(c4ccc(NS(=O)(=O)c5ccc(N[C@H](CCN(C)C)CSc6ccccc6)c([N+](=O)[O-])c5)cc4)CC3)c2)c(-c2ccc(Cl)cc2)n1C property_measured=pIC50 recorded_value=8.52

Turning now to a further record.
Query :: Which measured pIC50 value corresponds to Cc1c(C(=O)O)c(-c2cccc(N3CCN(c4ccc(NS(=O)(=O)c5ccc(N[C@H](CCN(C)C)CSc6ccccc6)c(S(=O)(=O)C(F)(F)F)c5)cc4)CC3)c2)c(-c2ccc(Cl)cc2)n1C ?
Result :: 8.30
